These entries and their values trace back to ChEMBL document CHEMBL1150413.

compounds and their reported IC50
test system: Plasmodium falciparum; test: Antimalarial activity against Plasmodium falciparum W2 by hypoxanthine uptake; format: functional, organism-based
Write down the numeric answer in nM and omit the unit.

O=C(CCCCCCC(=O)Nc1cccc(-c2cn(CC(O)c3cccc(Br)c3)nn2)c1)NO (stereo not given); 560
O=C(CCCCCCC(=O)Nc1cccc(-c2cnnn2Cc2ccccc2)c1)NO; 600

Challenge: // map `O=C(CCCCCCC(=O)Nc1cccc(-c2cn(-c3ccccc3)nn2)c1)NO` to recorded IC50 (system: Plasmodium falciparum)
Response given: 32

Challenge: Lab note: need IC50 for O=C(CCCCCCC(=O)Nc1ccc(-c2cn(CC(O)c3cccc(Br)c3)nn2)cc1)NO (stereo not given) on Plasmodium falciparum, anyone have it?
Response given: 390

====

system: Plasmodium falciparum; assay: microbe, parasite or virus in culture; details: TM91C235
Description: Antimalarial activity against Plasmodium falciparum TM91C235 by hypoxanthine uptake
recorded endpoint: pIC50
In plain terms, pIC50 is the concentration in mol/L turned into minus its base-10 logarithm.

// below: answered compounds
O=C(CCCCCCC(=O)Nc1ccc(-c2cn(Cc3ccccc3)nn2)cc1)NO; 6.52
O=C(CCCCCCC(=O)Nc1cccc(-c2cn(Cc3ccccc3)nn2)c1)NO; 6.66

Challenge: Query (compound): `O=C(CCCCCCC(=O)Nc1cccc(-c2cnnn2Cc2ccc(F)cc2)c1)NO` ; field requested: pIC50
Response given: 6.34

Challenge: Quick one: pIC50 of O=C(CCCCCCC(=O)Nc1cccc(-c2cnnn2CC(O)c2cccc(Br)c2)c1)NO (centres undefined) ?
Response given: 6.41

====

target: Histone deacetylase 1 (Homo sapiens)
Sequence (Q13547 whole entry): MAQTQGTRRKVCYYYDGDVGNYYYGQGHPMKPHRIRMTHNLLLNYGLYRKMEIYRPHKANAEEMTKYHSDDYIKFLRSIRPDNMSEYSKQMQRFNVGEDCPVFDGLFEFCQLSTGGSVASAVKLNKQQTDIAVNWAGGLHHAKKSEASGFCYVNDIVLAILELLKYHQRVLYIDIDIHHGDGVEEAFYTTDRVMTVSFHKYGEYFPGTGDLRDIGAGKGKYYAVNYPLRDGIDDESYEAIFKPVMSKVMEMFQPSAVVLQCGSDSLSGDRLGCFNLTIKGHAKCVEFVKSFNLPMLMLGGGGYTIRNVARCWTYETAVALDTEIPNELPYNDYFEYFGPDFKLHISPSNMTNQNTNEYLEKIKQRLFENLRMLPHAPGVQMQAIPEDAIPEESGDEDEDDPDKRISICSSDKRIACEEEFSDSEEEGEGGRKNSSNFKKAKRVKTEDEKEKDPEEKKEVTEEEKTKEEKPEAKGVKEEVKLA
recorded endpoint: IC50 (nM)
Dear colleague, please return just the value in nM, with no unit written.

Please review the entries below; each comes with its answer.
O=C(CCCCCCC(=O)Nc1ccc(-c2cnnn2-c2ccccc2)cc1)NO; 70.5
O=C(CCCCCCC(=O)Nc1cccc(-c2cnnn2-c2ccccc2)c1)NO; 33.4
O=C(CCCCCCC(=O)Nc1ccc(-c2cnnn2Cc2ccc(F)cc2)cc1)NO; 52.4
O=C(CCCCCCC(=O)Nc1cccc(-c2cnnn2CC(O)c2cccc(Br)c2)c1)NO (stereo unspecified); 23.4
O=C(CCCCCCC(=O)Nc1ccc(-c2cn(Cc3ccccc3)nn2)cc1)NO; 113

Challenge: Which IC50 value belongs to O=C(CCCCCCC(=O)Nc1cccc(-c2cn(CC(O)c3cccc(Br)c3)nn2)c1)NO (stereo unspecified) ?
Response given: 14.9

====

Molecular target: UniProtKB Q9BY41
Sequence (Q9BY41 whole entry): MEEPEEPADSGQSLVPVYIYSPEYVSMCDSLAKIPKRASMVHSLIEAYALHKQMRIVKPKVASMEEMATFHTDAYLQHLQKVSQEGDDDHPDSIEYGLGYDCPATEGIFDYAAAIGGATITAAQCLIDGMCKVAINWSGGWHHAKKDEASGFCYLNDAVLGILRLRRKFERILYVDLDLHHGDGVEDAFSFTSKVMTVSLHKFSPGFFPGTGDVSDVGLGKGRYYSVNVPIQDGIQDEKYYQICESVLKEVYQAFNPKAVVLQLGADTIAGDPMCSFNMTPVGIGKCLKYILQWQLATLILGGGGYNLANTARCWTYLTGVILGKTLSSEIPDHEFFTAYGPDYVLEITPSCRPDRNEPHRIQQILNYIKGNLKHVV
recorded endpoint: IC50 (µM)
Your answer should be a plain number; it is taken to be in µM.

O=C(CCCCCCC(=O)Nc1ccc(-c2cn(Cc3ccc(F)cc3)nn2)cc1)NO; 0.797
O=C(CCCCCCC(=O)Nc1cccc(-c2cnnn2CC(O)c2cccc(Br)c2)c1)NO (stereo unspecified); 0.406
O=C(CCCCCCC(=O)Nc1cccc(-c2cn(Cc3ccccc3)nn2)c1)NO; 1.99

Challenge: Would you mind telling me what IC50 value was observed for O=C(CCCCCCC(=O)Nc1cccc(-c2cn(CC(O)c3cccc(Br)c3)nn2)c1)NO (stereo unspecified) ?
Response given: 0.44

Challenge: Could you tell me which IC50 is on file for `O=C(CCCCCCC(=O)Nc1ccc(-c2cnnn2Cc2ccc(F)cc2)cc1)NO` ?
Response given: 2.01

====

test system: Plasmodium falciparum; test: Antimalarial activity against Plasmodium falciparum W2 by hypoxanthine uptake; assay type: functional, organism-based
Could you mark each record 1.0 if its IC50 falls strictly under 500 nM, and 0.0 if it equals or exceeds it?

O=C(CCCCCCC(=O)Nc1cccc(-c2cn(Cc3ccc(F)cc3)nn2)c1)NO; 1.0
O=C(CCCCCCC(=O)Nc1cccc(-c2cnnn2CC(O)c2cccc(Br)c2)c1)NO (centres undefined); 1.0
O=C(CCCCCCC(=O)Nc1ccc(-c2cnnn2Cc2ccccc2)cc1)NO; 0.0

Challenge: Item `O=C(CCCCCCC(=O)Nc1ccc(-c2cn(Cc3ccccc3)nn2)cc1)NO` : IC50 beneath 500 nM, strictly?
Response given: 0.0

Challenge: Does `O=C(CCCCCCC(=O)Nc1cccc(-c2cnnn2Cc2ccc(F)cc2)c1)NO` have IC50 strictly under 500 nM?
Response given: 0.0

Challenge: Identify whether the molecule `O=C(CCCCCCC(=O)Nc1cccc(-c2cnnn2-c2ccccc2)c1)NO` records IC50 below 500 nM.
Response given: 0.0

Challenge: Does this molecule meet the criterion IC50 < 500 nM? `O=C(CCCCCCC(=O)Nc1ccc(-c2cnnn2-c2ccccc2)cc1)NO`
Response given: 0.0

Challenge: Consider the molecule `O=C(CCCCCCC(=O)Nc1ccc(-c2cnnn2Cc2ccc(F)cc2)cc1)NO` . Is its IC50 strictly less than 500 nM?
Response given: 1.0

Challenge: Is it true that IC50 reported for `O=C(CCCCCCC(=O)Nc1cccc(-c2cn(Cc3ccccc3)nn2)c1)NO` is less than 500 nM?
Response given: 1.0

====

test system: Plasmodium falciparum; assay: Antimalarial activity against Plasmodium falciparum TM90C2A by hypoxanthine uptake; type: functional, organism-based
recorded endpoint: IC50 (nM)
// return numeric value only (unit: nM, not printed)

Challenge: Could you tell me which IC50 is on file for `O=C(CCCCCCC(=O)Nc1cccc(-c2cnnn2Cc2ccc(F)cc2)c1)NO` ?
Response given: 210

Challenge: What does the data say about its IC50? Entry: `O=C(CCCCCCC(=O)Nc1cccc(-c2cn(Cc3ccc(F)cc3)nn2)c1)NO`
Response given: 110

Challenge: Give its IC50 value. Item: `O=C(CCCCCCC(=O)Nc1cccc(-c2cnnn2-c2ccccc2)c1)NO`
Response given: 330

Challenge: Look at this compound and give its reported IC50. O=C(CCCCCCC(=O)Nc1ccc(-c2cnnn2CC(O)c2cccc(Br)c2)cc1)NO (centres undefined)
Response given: 230

====

target: Histone deacetylase 2 (Homo sapiens)
Sequence (Q92769 whole entry): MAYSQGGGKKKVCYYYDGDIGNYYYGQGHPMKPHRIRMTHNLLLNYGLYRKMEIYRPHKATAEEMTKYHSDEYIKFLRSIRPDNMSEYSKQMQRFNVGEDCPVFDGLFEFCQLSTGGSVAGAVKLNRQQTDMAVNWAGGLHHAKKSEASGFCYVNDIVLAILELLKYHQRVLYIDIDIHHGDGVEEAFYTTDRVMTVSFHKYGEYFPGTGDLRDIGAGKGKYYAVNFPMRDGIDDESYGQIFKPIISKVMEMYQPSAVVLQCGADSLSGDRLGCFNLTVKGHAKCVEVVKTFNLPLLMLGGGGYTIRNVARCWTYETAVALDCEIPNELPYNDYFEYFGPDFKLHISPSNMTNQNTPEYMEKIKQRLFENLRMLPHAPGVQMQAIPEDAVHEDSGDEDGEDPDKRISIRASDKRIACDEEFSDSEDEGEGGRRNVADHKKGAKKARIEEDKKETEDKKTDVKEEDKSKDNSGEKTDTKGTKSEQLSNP
Measured pIC50 of individual entries
// returns pIC50 (minus log10 of molar concentration), number only

O=C(CCCCCCC(=O)Nc1ccc(-c2cnnn2Cc2ccc(F)cc2)cc1)NO; 7.24
O=C(CCCCCCC(=O)Nc1cccc(-c2cn(Cc3ccccc3)nn2)c1)NO; 7.37
O=C(CCCCCCC(=O)Nc1cccc(-c2cnnn2Cc2ccccc2)c1)NO; 6.95
O=C(CCCCCCC(=O)Nc1ccc(-c2cnnn2CC(O)c2cccc(Br)c2)cc1)NO (centres undefined); 6.67

Challenge: Any idea what pIC50 came out for O=C(CCCCCCC(=O)Nc1cccc(-c2cn(CC(O)c3cccc(Br)c3)nn2)c1)NO (centres undefined) on Histone deacetylase 2 (Homo sapiens)?
Response given: 7.19

Challenge: Give recorded pIC50 with Histone deacetylase 2 (Homo sapiens) for the following molecule: `O=C(CCCCCCC(=O)Nc1cccc(-c2cnnn2-c2ccccc2)c1)NO`
Response given: 6.78

====

// each record: one item and its pIC50 for Protein deacetylase HDAC6 (Homo sapiens)
Would you please state pIC50, meaning minus log10 of the concentration in mol/L, as a bare number?

Example molecules with recorded pIC50:
O=C(CCCCCCC(=O)Nc1cccc(-c2cnnn2Cc2ccc(F)cc2)c1)NO; 8.42
O=C(CCCCCCC(=O)Nc1ccc(-c2cn(Cc3ccccc3)nn2)cc1)NO; 8.32
O=C(CCCCCCC(=O)Nc1ccc(-c2cnnn2-c2ccccc2)cc1)NO; 8.46
O=C(CCCCCCC(=O)Nc1cccc(-c2cn(CC(O)c3cccc(Br)c3)nn2)c1)NO (stereo not drawn); 8.72
O=C(CCCCCCC(=O)Nc1ccc(-c2cnnn2Cc2ccccc2)cc1)NO; 8.51

# input for lookup
Challenge: I'm curious: which pIC50 was measured for `O=C(CCCCCCC(=O)Nc1cccc(-c2cnnn2-c2ccccc2)c1)NO` tested on Protein deacetylase HDAC6 (Homo sapiens)?
Response given: 8.12

====

system: Plasmodium falciparum; assay: Antimalarial activity against Plasmodium falciparum TM90C2A by hypoxanthine uptake; assay type: functional, organism-based
A collection of compounds and their measured pIC50
Scale explanation: pIC50 corresponds to minus log10 of a concentration expressed in moles per litre.

// solved cases for pIC50 follow
O=C(CCCCCCC(=O)Nc1cccc(-c2cn(CC(O)c3cccc(Br)c3)nn2)c1)NO (stereo not given); 6.96
O=C(CCCCCCC(=O)Nc1cccc(-c2cnnn2Cc2ccccc2)c1)NO; 6.82
O=C(CCCCCCC(=O)Nc1cccc(-c2cn(-c3ccccc3)nn2)c1)NO; 7.77
O=C(CCCCCCC(=O)Nc1ccc(-c2cn(CC(O)c3cccc(Br)c3)nn2)cc1)NO (stereo not given); 6.72
O=C(CCCCCCC(=O)Nc1cccc(-c2cn(Cc3ccccc3)nn2)c1)NO; 6.72
O=C(CCCCCCC(=O)Nc1ccc(-c2cnnn2Cc2ccc(F)cc2)cc1)NO; 6.92
O=C(CCCCCCC(=O)Nc1ccc(-c2cnnn2Cc2ccccc2)cc1)NO; 6.52
O=C(CCCCCCC(=O)Nc1ccc(-c2cn(Cc3ccccc3)nn2)cc1)NO; 6.80
O=C(CCCCCCC(=O)Nc1ccc(-c2cnnn2-c2ccccc2)cc1)NO; 6.77

Challenge: # returns recorded pIC50 (system: Plasmodium falciparum) for O=C(CCCCCCC(=O)Nc1cccc(-c2cnnn2CC(O)c2cccc(Br)c2)c1)NO (stereo not given)
Response given: 6.92
